System: Pseudomonas aeruginosa
Test: Antimicrobial activity against Pseudomonas aeruginosa ATCC 27853 assessed as reduction of bacterial growth incubated for 18 hrs by CLSI protocol based broth microdilution method
Type: functional
observable: MIC (µM)
Enter your answer as a number in µM; do not include the unit.

[[record]]
substance = "H-WKWKWKRRRFKWKWKW-NH2"
recorded_result = 4

[[record]]
substance = "H-IRIRRRRFRIRI-NH2"
recorded_result = 4

[[record]]
substance = "H-FRFRFRRRRFRFRFRF-NH2"
recorded_result = 8

[[record]]
substance = "H-RIRIRRRFIRIR-NH2"
recorded_result = 16

[[record]]
substance = "H-WRWRRRRFRWRW-NH2"
recorded_result = 8

[[record]]
substance = "H-VRVRRRRFRVRV-NH2"
recorded_result = 64


--- query ---
Report value: MIC, system: Pseudomonas aeruginosa, substance: `H-IRIRIRRRRFRIRIRI-NH2`
4
